Assay Target: human CD28 (human, UniProt P10747 19-220)
Assay Explanation: cell-based or functional assay
Reported Property: MLR assay (EC50) (nM)

Below, each entry is followed by its recorded MLR assay (EC50) result.
# Binder, MLR assay (EC50), nM
rows = [
    ("1h-99-2 (other) VH: EVQLLESGGGLVQPGGSLRLSCAASGFTFDSANMSWVRQAPGKGLEWVSWIEDTGTQTFYADSVKGRFTISRDNSKNTLYLQMNSLRAEDTAVYYCAKSPFGPLYGFDYRGQGTLVTVSS", 13),
    ("1h-79-15 (other) VL: DIQMTQSPSSLSASVGDRVTITCRASQPIGHSLGWYQQKPGKAPKLLIYWASTLQSGVPSRFSGSGSGTDFTITISSLQPEDFATYYCQQMLRTPFTFGQGTKVEIKR", 268),
    ("1h-79-806 (other) VL: DIQMTQSPSSLSASVGDRVTITCRASQPIGHSLGWYQQKPGKAPKLLIYWASMLQGGVPSRFSGSGSGTDFTLTISSLQPEDFATYYCQQMLRTPFMFGQGTKVEIKR", 26),
    ("1h-99-238 (other) VH: EVQLLESGGGLVQPGGSLRLSCAASGFTFDSANMSWARQAPGKGLEWVSWIEASGVQTFYADSVKGRFTISRDNSKNTLYLQMNSLRAEDTAVYYCAKSPFGPLYGFDYRGQGTLVTVSS", 5),
    ("1h-239-809 (other) VL: DIQMTQSPSSLSASVGDRVTITCRASRPIWPFLEWYQQKPGKAPKLLIYFTSRLQSGVPSRFSGSGSGTDFTLTISSLQPEDFATYYCLQNVTNPATFSQGTKVEIKR", 4),
    ("1h-239-816 (other) VL: DIQMTQSPSSLSASVGDRVTITCRASRTIYPFLEWYQQKPGKAPKLLIYFTSRLQSGVPSRFSGSGSGTDFTLTISSLQPEDFATYYCLQNVTNPATFSQGTKVEIKR", 13),
]

[a] 1h-83 (other) VL: DIQMTQSPSSLSASVGDRVTITCRASQSIGHSLVWYQQKPGKAPKLLIYWASLLQSGVSSRFSGSGSGTDFTLTISSLQPEDFATYYCQQSRAAPFTFGQGTKVEIKR
[b] 1h-38 (other) VL: DIQMTQSPSSLSASVGDRVTITCRASQPIGSVLAWYQQKPGKAPKLLIYFSSILQSGVPSRFSGSGSGTDFTLTISGLQPEDFATYYCQQALRSPFTFGQGTKVEIKR
Ask: Of a and b , whose reported MLR assay (EC50) is the larger number? // return label of chosen record
Reply: a

The reported measurements were obtained from patent US20130109846A1.
